biological target: furin, P09958; test: furin cleavage Z-score vs untreated control; higher = more cleavage, active = 3.5 or more, inactive = 1 or less, 8 variable residues between constant flanks; settings: 30 min;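 note: purified furin at 1:10 enzyme:substrate in 50 mM HEPES pH 7.5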
Sequence (P09958 whole entry): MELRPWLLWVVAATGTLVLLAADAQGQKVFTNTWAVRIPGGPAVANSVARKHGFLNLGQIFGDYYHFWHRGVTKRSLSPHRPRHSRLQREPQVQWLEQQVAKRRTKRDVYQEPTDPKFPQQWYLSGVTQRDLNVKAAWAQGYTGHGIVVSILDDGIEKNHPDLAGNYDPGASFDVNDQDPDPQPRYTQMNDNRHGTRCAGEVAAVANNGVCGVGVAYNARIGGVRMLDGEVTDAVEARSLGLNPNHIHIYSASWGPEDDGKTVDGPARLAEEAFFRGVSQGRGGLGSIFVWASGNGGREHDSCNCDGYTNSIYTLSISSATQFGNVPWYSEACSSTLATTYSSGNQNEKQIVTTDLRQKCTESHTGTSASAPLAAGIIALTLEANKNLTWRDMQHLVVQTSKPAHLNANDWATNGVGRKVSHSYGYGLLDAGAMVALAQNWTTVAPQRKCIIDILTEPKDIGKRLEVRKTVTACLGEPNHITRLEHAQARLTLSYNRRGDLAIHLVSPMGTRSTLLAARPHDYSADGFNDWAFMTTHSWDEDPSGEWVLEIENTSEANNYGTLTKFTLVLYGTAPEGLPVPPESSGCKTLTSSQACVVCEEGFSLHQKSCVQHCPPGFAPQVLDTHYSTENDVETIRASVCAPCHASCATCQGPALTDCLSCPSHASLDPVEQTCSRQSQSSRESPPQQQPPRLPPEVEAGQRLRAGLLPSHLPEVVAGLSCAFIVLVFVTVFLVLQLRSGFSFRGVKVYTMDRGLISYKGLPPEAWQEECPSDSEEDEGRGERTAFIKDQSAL
The other results are listed elsewhere or left out. The true hit rate is not given.
OBSERVED PROPERTY: furin cleavage Z-score

Quick one: furin cleavage Z-score of CARPRRETCHAGNASASA [FS-2358] ?
6.63 (active)

// same read-out, input: CARRGREILLAGNASASA [HC663]
5.12 (active)

Now the same for CATTPCSAHLAGNASASA [HC2478]
-0.164 (inactive)

Then what about the sequence CARPQRSACHAGNASASA [FS-1832] ?
2.47
